Where do the numbers come from? From patent US12448388B2.

- Test system: HCT116 MTAP-deleted cell lines
- experimentalProtocol: Cell viability assay (CellTiter-Glo, 7 days), HCT116 MTAP-deleted
- Format: cell-based
- settings: Homo sapiens, HCT-116; cell viability, HCT116 MTAP-deleted; class symbols; read-out: CC50
Can you tell me CC50 for the items I'm about to list?

Exercise: Provide CC50 value for the following compound: Nc1nc2cc(F)c(C(=O)N3CCC[C@@H]4OCc5cc(OC(F)F)ccc5[C@@H]43)cc2n2cncc12 (racemic) [Ff-287]
Key: < 100 nM

Exercise: Output CC50 of C[C@@H]1CN(C(=O)c2cc3c(cc2F)nc(N)c2cncn23)[C@H]2c3ccc(C(F)(F)F)cc3C[C@H]2O1 (single isomer, unassigned) [Ff-77]
Key: < 100 nM

Exercise: Tell me CC50 reported for CN(C(=O)c1cc2c(cc1F)nc(N)c1cncn12)[C@@H]1COc2cc(-c3csc(C(F)(F)F)n3)ccc21 [Ff-231]
Key: 100 to 1000 nM

* * *

- experimentalProtocol: Pharmacokinetics in cassette in male Sprague-Dawley rats for Kp measurement
- Assay type: in vivo
- settings: intravenous, 1 mg/kg, brain Kpu,u = Kp * (plasma free/rat brain free), read-out: Rat brain Kpu,u
measurementKind: Kp
Hey, just send me the number, nothing else.

Exercise: Output measured Kp for this item: Nc1nc2cnc(C(=O)N3CCC[C@@H]4Oc5cc(C(F)(F)F)cc(F)c5[C@@H]43)cc2n2cncc12 (single isomer, unassigned)
Key: 0.05

Exercise: Determine its reported Kp: `Nc1nc2cnc(C(=O)N3CCC[C@@H]4Oc5cc(C(F)(F)F)ccc5[C@@H]43)cc2n2cncc12`
Key: 0.06

Exercise: Give reported Kp value for `Nc1nc2ccc(C(=O)N3CCC[C@@H]4Oc5cc(C(F)(F)F)ccc5[C@@H]43)cc2n2cncc12`
Key: 0.06

Exercise: Report Kp, nothing else, for this compound: `Cc1ncn2c1c(N)nc1ccc(C(=O)N3CCC[C@@H]4Oc5cc(C(F)(F)F)ccc5[C@@H]43)cc12`
Key: 0.13

Exercise: Entry `Nc1nc2cc(F)c(C(=O)N3CCC[C@@H]4Oc5cc(C(F)(F)F)ccc5[C@@H]43)cc2n2cncc12` needs its Kp filled in; supply it.
Key: 0.07

Exercise: Identify the reported Kp for the following entry. `Cc1ncc2c(N)nc3cnc(C(=O)N4CCC[C@@H]5Oc6cc(OC(F)(F)F)ccc6[C@@H]54)cc3n12`
Key: 0.06

Exercise: Look up Kp of `Nc1nc2cc(Cl)c(C(=O)N3CCC[C@@H]4Oc5cc(C(F)(F)F)ccc5[C@@H]43)cc2n2cncc12` and report it.
Key: 0.06

Exercise: Query Kp for C[C@@H]1CN(C(=O)c2cc3c(cc2F)nc(N)c2cncn23)[C@H]2c3cc(F)c(OC(F)(F)F)cc3C[C@H]2O1 (single isomer, unassigned)
Key: 0.06

Exercise: Give Kp for the following compound: Nc1nc2cc(F)c(C(=O)N3CCO[C@@H]4Cc5cc(C(F)(F)F)ccc5[C@@H]43)cc2n2cncc12 (single isomer, unassigned)
Key: 0.02

Exercise: Determine its reported Kp: C[C@@H]1CN(C(=O)c2cc3c(cc2F)nc(N)c2cncn23)[C@H]2c3ccc(OC(F)(F)F)cc3C[C@H]2O1 (single isomer, unassigned)
Key: 0.06

* * *

Kindly supply the reported CC50 values for the records listed here.
- System: HCT116 MTAP-deleted cell lines
- experimentalProtocol: Cell viability assay (CellTiter-Glo, 7 days), HCT116 MTAP-deleted
- Assay type: cell-based
- settings: Homo sapiens, HCT-116; cell viability, HCT116 MTAP-deleted; class symbols; read-out: CC50

Exercise: Identify the reported CC50 for the following entry. `CCN(Cc1ccc(C(F)(F)F)cc1F)C(=O)c1ccc2nc(N)c3cncn3c2c1`
Key: < 0.1 µM

Exercise: Consider the compound `CN(C(=O)c1cc2c(cc1F)nc(N)c1cncn12)[C@H]1c2ccc(Br)cc2[C@@H]2C[C@@H]21` and give its recorded CC50.
Key: 0.1 to 1 µM

Exercise: // fetch CC50 given entry CN(C(=O)c1cc2c(cc1F)nc(N)c1cncn12)C1CCc2nc(Cl)sc21 (stereo not drawn)
Key: 0.1 to 1 µM

Exercise: // Input: `C[C@H]1CN(C(=O)c2cc3c(cc2F)nc(N)c2cncn23)[C@H]2c3ccc(-c4cnn(C(F)F)c4)c(F)c3C[C@H]2O1` . Output its CC50 only.
Key: < 0.1 µM

Exercise: Return CC50 for the following compound: `Nc1nc2cc(F)c(C(=O)N(Cc3ccc(C(F)(F)F)cc3F)C34CC(C3)C4)cc2n2cncc12`
Key: < 0.1 µM

Exercise: Give the reported CC50 for this compound. Nc1nc2cc(F)c(C(=O)N3CCC[C@@H]4OCc5cc(-c6cnn(C(F)F)c6)ccc5[C@@H]43)cc2n2cncc12 (racemic)
Key: < 0.1 µM

Exercise: Give the value of CC50 reported for the following: C[C@@H]1CN(C(=O)c2cc3c(cc2F)nc(N)c2cncn23)[C@H]2c3cc(F)c(C(F)(F)F)cc3C[C@H]2O1 (single isomer, unassigned)
Key: < 0.1 µM

Exercise: Report CC50, nothing else, for this compound: `Nc1nc2cc(F)c(C(=O)N(Cc3ccc(F)cc3Cl)C3CCC3)cc2n2cncc12`
Key: 0.1 to 1 µM

Exercise: Query CC50 for `COc1cc(C(F)(F)F)ccc1CN(C)C(=O)c1ccc2nc(N)c3cncn3c2c1`
Key: 0.1 to 1 µM

Exercise: Fill in reported CC50 for this entry: Nc1nc2cc(F)c(C(=O)N3C[C@H](F)CCC3c3ccc(C(F)(F)F)cn3)cc2n2cncc12 (mixture of isomers)
Key: < 0.1 µM

Exercise: In one line, give reported CC50 of the entry `Nc1nc2cc(F)c(C(=O)N(Cc3ccc(-c4cnn(C(F)F)c4)cn3)C34CC(C3)C4)cc2n2cncc12` .
Key: < 0.1 µM

Exercise: Quote CC50 reported for `Cc1ncn2c1c(N)nc1cc(F)c(C(=O)N3CCC[C@@H]4Oc5nc(C(F)(F)F)ccc5[C@@H]43)cc12` please.
Key: < 0.1 µM

Exercise: Quote CC50 reported for `CC(C)N(Cc1ccc(-c2cnn(-c3ccccn3)c2)cc1F)C(=O)c1cc2c(cc1F)nc(N)c1cncn12` please.
Key: < 0.1 µM

Exercise: # return recorded CC50 for entry `CC(C)N(Cc1ccc(F)cc1Cl)C(=O)c1ccc2nc(N)c3cncn3c2c1`
Key: 0.1 to 1 µM

Exercise: Look up CC50 of Nc1nc2ccc(C(=O)N3CC[C@H]4C[C@@H]3c3ccc(C(F)(F)F)cc34)cc2n2cncc12 (racemic) and report it.
Key: 0.1 to 1 µM

Exercise: Please supply the value of reported CC50 for the item `Nc1nc2cc(F)c(C(=O)N(Cc3ccc(C(F)(F)F)cc3F)C34COC(C3)C4)cc2n2cncc12`
Key: < 0.1 µM

Exercise: State its CC50 for this compound: `Nc1nc2cnc(C(=O)N3CCC[C@@H]4Oc5c(ccc(OC(F)(F)F)c5F)[C@@H]43)cc2n2cncc12`
Key: < 0.1 µM

Exercise: Look up and state reported CC50 for `CN(C(=O)c1ccc2nc(N)c3cncn3c2c1)[C@@H]1COc2cc(C(F)(F)F)c(F)cc21`
Key: < 0.1 µM

Exercise: Supply recorded CC50 for `COCc1cc(C(F)(F)F)ccc1CN(C)C(=O)c1ccc2nc(N)c3cncn3c2c1` here.
Key: 0.1 to 1 µM

Exercise: // fetch CC50 given entry `CN(C(=O)c1cc2c(cc1F)nc(N)c1cncn12)[C@@H]1COc2nc(C(F)(F)F)ccc21`
Key: < 0.1 µM

Exercise: Given `CN(C(=O)c1cc2c(cc1F)nc(N)c1cncn12)[C@@H]1COc2cc(C(C)(F)F)ccc21` , respond with its CC50.
Key: < 0.1 µM

Exercise: For the compound `Cn1cc(N(Cc2ncc(C(F)(F)F)cc2F)C(=O)c2cc3c(cc2F)nc(N)c2cncn23)cn1` , give its measured CC50 value.
Key: < 0.1 µM

Exercise: For `Nc1nc2cc(F)c(C(=O)N3CCO[C@@H]4Cc5cc(-c6ccc(C(F)(F)F)nc6)ccc5[C@@H]43)cc2n2cncc12` , write its CC50.
Key: < 0.1 µM

Exercise: Entry `Cc1ncc2c(N)nc3ccc(C(=O)N(C)[C@@H]4COc5cc(C(F)(F)F)c(F)cc54)cc3n12` needs its CC50 filled in; supply it.
Key: < 0.1 µM

Exercise: Please list CC50 recorded for the compound Nc1nc2cc(F)c(C(=O)N3CC[C@H]4C[C@@H]3c3ccc(C(F)(F)F)nc34)cc2n2cncc12 (racemic)
Key: 0.1 to 1 µM

Exercise: Please give measured CC50 of the following entry: C[C@H]1CN(C(=O)c2cc3c(cc2F)nc(N)c2cncn23)[C@H]2c3ccccc3C[C@H]2O1 (racemic)
Key: < 0.1 µM

Exercise: Retrieve CC50 measured for `Cn1cc(N(Cc2ccc(C(F)(F)F)cn2)C(=O)c2cc3c(cc2F)nc(N)c2cncn23)cn1` and print it.
Key: < 0.1 µM

Exercise: Provide only the value of recorded CC50 for `Cc1ncc2c(N)nc3cnc(C(=O)N4CCC[C@@H]5Oc6cc(C(F)(F)F)ccc6[C@@H]54)cc3n12`
Key: < 0.1 µM

Exercise: For the compound `CN(C(=O)c1cc2c(cc1F)nc(N)c1cncn12)[C@@H]1COc2cc(-c3cnn(C4CC4)c3)ccc21` , report CC50.
Key: < 0.1 µM

Exercise: Return CC50 (reported value) for this compound: COc1ccc2c(c1)CO[C@H]1CCN(C(=O)c3cc4c(cc3F)nc(N)c3cncn34)[C@@H]21 (racemic)
Key: 0.1 to 1 µM
